system: MDA-N; test: NCI tumour cell line growth inhibition, 48 h
Calls of active or inactive are those of the source. Cut-off read from the data, not from the text of the source: active = GI50 up to about 1.1 µM and inactive = higher.
Labels: y for active, n for inactive

>>> assigned_class("CC(=N/N=C/c1ccccn1)/C(C)=N/N=C(C)/C(C)=N/N=C(C)/C(C)=N/N=C(C)/C(C)=N\\N=C\\c1ccccn1")
"n"
>>> assigned_class("O=c1cc(N2CCOCC2)oc2c(-c3ccccc3)cccc12")
"n"
>>> assigned_class("CCOC(=O)Cc1cc(=O)[nH]c(-n2[nH]c(C)c(CCO)c2=O)n1")
"n"
>>> assigned_class("COC1N(C2CC(O)C(CO)O2)C(=O)NC(=O)C1(F)Br (centres undefined)")
"n"
>>> assigned_class("C1CSCCCSCCCSCCCSCCCSCCCSCCCSCCCSC1")
"n"
>>> assigned_class("Cc1oc2c(c1C)S(=O)(=O)C(C#N)=C(c1ccccc1)N2")
"n"
>>> assigned_class("O=C1Nc2ccccc2C(=O)/C1=C/NC(=S)NCc1ccccc1")
"n"
>>> assigned_class("C=C1c2ccccc2C(=O)c2c1c1c(C(=O)OC)c(O)ccc1n2Cc1ccccc1")
"y"
>>> assigned_class("CC(=O)OCc1cc(OC(C)=O)c2cc3c(OC(C)=O)cccc3c(OC(C)=O)c2c1")
"n"

----------
system: U-251; assay: NCI tumour cell line growth inhibition, 48 h
Calls of active or inactive are those of the source. Cut-off read from the data, not from the text of the source: active = GI50 up to about 1.1 µM and inactive = higher. Where a SMILES comes first, the peptide text is derived from it. [ ]: non-standard residue; d: D form. The star is where a group is joined. ξ: configuration not given here. ξD = NC(CC(=O)O)C(=O)O; Boc = CC(C)(C)OC(=O)*; Aib = CC(C)(N)C(=O)O; OBn = c1ccc(CO*)cc1
OBSERVABLE: GI50

>>> meas_value("O=C(CCc1ccccc1)On1c(-c2ccccc2)nc2ccccc2c1=S")
"4.38 µM (inactive)"
>>> meas_value("COc1c(C(=O)/C(=N/Nc2ccc(C(=O)O)cc2)C(C)=O)c(O)cc2occc12")
"> 100 µM (inactive)"
>>> meas_value("COc1ccc(C2SCC(=O)N2NC(=O)c2ccc(NC(C)=O)cc2)cc1 (centres undefined)")
"40.6 µM (inactive)"
>>> meas_value("CC1(C)CCC(C)(C)c2c1ccc(O)c2Cc1c(O)ccc2c1C(C)(C)CCC2(C)C")
"1.78 µM (inactive)"
>>> meas_value("CC1=Cc2cccc(C)c2C(=O)C1=O")
"10.8 µM (inactive)"
>>> meas_value("O=C(CC1(O)C(=O)Nc2ccccc21)c1ccc(Cl)c(Cl)c1 (centres undefined)")
"> 100 µM (inactive)"
>>> meas_value("CC(C)(C)OC(=O)NC(CC(=O)OCc1ccccc1)C(=O)NC(C)(C)C(N)=O (centres undefined) (Boc-[ξD](OBn)-[Aib]-NH2)")
"> 100 µM (inactive)"
>>> meas_value("COC(=O)[C@@H]1O[C@]12C(CO[Si](C)(C)C(C)(C)C)OC(n1ccc(=O)[nH]c1=O)C2O[Si](C)(C)C(C)(C)C (some centres undefined)")
"26.2 µM (inactive)"
>>> meas_value("COC(=O)[C@H](CC(C)C)NC(=O)[C@H](Cc1ccccc1)N1CC2C=CC1C2 (some centres undefined)")
"> 100 µM (inactive)"

----------
tested on: TK-10; experiment: NCI tumour cell line growth inhibition, 48 h
Activity calls are given as the source filed them. Cut-off read from the data, not from the text of the source: active = GI50 up to about 1.1 µM and inactive = higher.
Reported GI50 values for a set of compounds
OBSERVABLE: GI50

>>> meas_value("O=C(/C=C1\\Sc2ccccc2N=C1CC(=O)c1ccccc1)c1ccccc1")
"5.73 µM (inactive)"
>>> meas_value("O=C1C(Br)=C(C2=CC(=P(c3ccccc3)(c3ccccc3)c3ccccc3)C=C2)C(=O)C(Br)=C1C1=CC(=P(c2ccccc2)(c2ccccc2)c2ccccc2)C=C1")
"30.3 µM (inactive)"
>>> meas_value("S=c1sc2c(Cl)nc(Cl)nc2n1-c1ccccc1")
"> 100 µM (inactive)"
>>> meas_value("Cc1c(N=C(S)Nc2ccc(Cl)cc2)c(=O)n(-c2ccccc2)n1C")
"> 100 µM (inactive)"

----------
tested on: MDA-MB-435; assay: NCI tumour cell line growth inhibition, 48 h
Calls of active or inactive are those of the source. No stated cut-off is given here; in the data, active = GI50 up to about 1.1 µM and inactive = higher.
OBSERVABLE: GI50

>>> meas_value("COC(=O)c1c(O)ccc2c1c1c(n2Cc2cccc(C)c2)C(=O)c2ccccc2C1")
"11.4 µM (inactive)"
>>> meas_value("O=[N+]([O-])c1ccc(S(=O)(=O)n2c3ccc(Br)cc3c3nc4ccccc4nc32)cc1")
"> 100 µM (inactive)"
>>> meas_value("CC(=O)C1C(=O)C(=O)N(c2ccccc2)C1=O (stereo not drawn)")
"> 100 µM (inactive)"

----------
tested on: RXF 393; assay: NCI tumour cell line growth inhibition, 48 h
Calls of active or inactive are those of the source. No stated cut-off is given here; in the data, active = GI50 up to about 1.1 µM and inactive = higher.
OBSERVABLE: GI50

>>> meas_value("CC1OC(OC2C(O[C@@H]3C[C@@H]4CC[C@@H]5[C@H](CC[C@]6(C)C7C(C[C@@H]56)O[C@]5(CC[C@@H](C)CO5)[C@H]7C)[C@@]4(C)C[C@H]3O)OC(CO)C(O)C2O)C(O)C(O)C1O (stereo partly drawn)")
"2.15 µM (inactive)"
>>> meas_value("COC(=O)c1c(O)ccc2c1c1c(n2Cc2cccc(C)c2)C(=O)c2ccccc2C1")
"11.9 µM (inactive)"
>>> meas_value("CCOC(=O)Cc1cc(=O)[nH]c(-n2[nH]c(C)c(CCO)c2=O)n1")
"> 100 µM (inactive)"

----------
// reported GI50 for each item listed
system: NCI-H460; test: NCI tumour cell line growth inhibition, 48 h
The source made the active and inactive calls. No stated cut-off is given here; in the data, active = GI50 up to about 1.1 µM and inactive = higher.
OBSERVABLE: GI50

>>> meas_value("O=c1cc(N2CCOCC2)oc2c(-c3ccccc3)cccc12")
"11.4 µM (inactive)"
>>> meas_value("Cc1cc(O)c2c(c1)C(=O)C(c1c(C)cc3c(c1O)C(=O)C1OC1C3=O)=CC2=O (stereo not given)")
"7.87 µM (inactive)"
>>> meas_value("Cn1c(=O)c2nc(N3CCOCC3)cnc2n(C)c1=O")
"> 100 µM (inactive)"
>>> meas_value("CC(=O)NC(CCCCN)C(=O)NCc1ccccc1 (stereo not given)")
"> 100 µM (inactive)"
>>> meas_value("C=C(C)C12CC3CC/C(=N/O)C(C1)C3(N1CCOCC1)C/C2=N/O (stereo not given)")
"> 100 µM (inactive)"

----------
system: Hs-578T; assay: NCI tumour cell line growth inhibition, 48 h
The source made the active and inactive calls. Cut-off read from the data, not from the text of the source: active = GI50 up to about 1.1 µM and inactive = higher.
Outcomes: TRUE (active), FALSE (inactive)

>>> assigned_class("C=C1C(=O)OC2/C=C(\\CO)C3OC3C3OC3(C)CC(OC(=O)/C(=C/C)COC(C)=O)C12 (stereo unspecified)")
"FALSE"
>>> assigned_class("C1CSCCCSCCCSCCCSCCCSCCCSCCCSCCCSC1")
"FALSE"
>>> assigned_class("O=C(O)/C(=C\\c1ccccc1)Cc1ccccc1")
"FALSE"
>>> assigned_class("CC(=O)O[C@H]1C(=O)[C@@]2(C)[C@H]([C@H](OC(=O)c3ccccc3)[C@]3(O)C[C@H](OC(=O)[C@H](O)[C@@H](NC(=O)c4ccccc4)c4ccccc4)C(C)=C1C3(C)C)[C@]1(OC(C)=O)CO[C@@H]1C[C@@H]2O")
"TRUE"
>>> assigned_class("CCOC(=O)c1c[nH]cc1-c1cn(S(=O)(=O)c2ccccc2)cc1C")
"FALSE"
>>> assigned_class("O=C1C(Cl)=C(c2ccc([N+](=O)[O-])cc2)C(=O)c2c(O)cccc21")
"FALSE"

----------
tested on: MOLT-4; test: NCI tumour cell line growth inhibition, 48 h
Activity calls are given as the source filed them. Cut-off read from the data, not from the text of the source: active = GI50 up to about 1.1 µM and inactive = higher.
Outcome codes: True for active, False for inactive

>>> assigned_class("COC(=O)C1=C(C(=O)OC)SC2(S1)C(C(=O)OC)=C(C(=O)OC)Sc1c2ssc1=O")
"True"
>>> assigned_class("COc1cc2c(NCCCCCO)ncnc2c(OC)c1OC")
"False"
>>> assigned_class("CCCn1cc2c(O)nc(SC)nc2n1")
"False"
>>> assigned_class("CCOC(=O)CCC(NC(=O)C(CCC(=O)OCC)NC(=O)C(Cc1ccc([N+](=O)[O-])cc1)NC(C)=O)C(=O)NNC(=O)OC(C)(C)C (stereo not drawn)")
"False"
>>> assigned_class("CCCCn1c(C)c(C)c2c1NN=C(C#N)S2(=O)=O")
"False"
>>> assigned_class("CCOC(=O)NC(Nc1cccc(C(F)(F)F)c1)(C(F)(F)F)C(F)(F)F")
"False"
>>> assigned_class("CSC(=N\\c1ccccc1)/N=C(\\SCc1ccccc1)N(C)C")
"True"
>>> assigned_class("CC1(C)CCCCCC(O)C(O)CCC(C)(C)C1=O (stereo not drawn)")
"False"

----------
Catalogue of GI50 values
system: LOX IMVI; assay: NCI tumour cell line growth inhibition, 48 h
The source made the active and inactive calls. Rule as the data show it: active = GI50 up to about 1.1 µM and inactive = higher.
OBSERVABLE: GI50

>>> meas_value("NN/C(Cc1ccccc1)=N\\NO")
"33.3 µM (inactive)"
>>> meas_value("CC(C)=C1CCC(CN2CCOCC2)C1=O (stereo not drawn)")
"19.9 µM (inactive)"
>>> meas_value("CC(C)(Oc1ccc(Cl)cc1)C(=O)N(C(=O)N1CCN(c2ccccc2)CC1)c1ccccc1")
"> 100 µM (inactive)"
